Each recorded value in this set is attributed to PubChem BioAssay AID602166.

Molecular target: Nuclear receptor coactivator 3 (Homo sapiens) (UniProt Q9Y6Q9)
Sequence (Q9Y6Q9 whole entry, looked up): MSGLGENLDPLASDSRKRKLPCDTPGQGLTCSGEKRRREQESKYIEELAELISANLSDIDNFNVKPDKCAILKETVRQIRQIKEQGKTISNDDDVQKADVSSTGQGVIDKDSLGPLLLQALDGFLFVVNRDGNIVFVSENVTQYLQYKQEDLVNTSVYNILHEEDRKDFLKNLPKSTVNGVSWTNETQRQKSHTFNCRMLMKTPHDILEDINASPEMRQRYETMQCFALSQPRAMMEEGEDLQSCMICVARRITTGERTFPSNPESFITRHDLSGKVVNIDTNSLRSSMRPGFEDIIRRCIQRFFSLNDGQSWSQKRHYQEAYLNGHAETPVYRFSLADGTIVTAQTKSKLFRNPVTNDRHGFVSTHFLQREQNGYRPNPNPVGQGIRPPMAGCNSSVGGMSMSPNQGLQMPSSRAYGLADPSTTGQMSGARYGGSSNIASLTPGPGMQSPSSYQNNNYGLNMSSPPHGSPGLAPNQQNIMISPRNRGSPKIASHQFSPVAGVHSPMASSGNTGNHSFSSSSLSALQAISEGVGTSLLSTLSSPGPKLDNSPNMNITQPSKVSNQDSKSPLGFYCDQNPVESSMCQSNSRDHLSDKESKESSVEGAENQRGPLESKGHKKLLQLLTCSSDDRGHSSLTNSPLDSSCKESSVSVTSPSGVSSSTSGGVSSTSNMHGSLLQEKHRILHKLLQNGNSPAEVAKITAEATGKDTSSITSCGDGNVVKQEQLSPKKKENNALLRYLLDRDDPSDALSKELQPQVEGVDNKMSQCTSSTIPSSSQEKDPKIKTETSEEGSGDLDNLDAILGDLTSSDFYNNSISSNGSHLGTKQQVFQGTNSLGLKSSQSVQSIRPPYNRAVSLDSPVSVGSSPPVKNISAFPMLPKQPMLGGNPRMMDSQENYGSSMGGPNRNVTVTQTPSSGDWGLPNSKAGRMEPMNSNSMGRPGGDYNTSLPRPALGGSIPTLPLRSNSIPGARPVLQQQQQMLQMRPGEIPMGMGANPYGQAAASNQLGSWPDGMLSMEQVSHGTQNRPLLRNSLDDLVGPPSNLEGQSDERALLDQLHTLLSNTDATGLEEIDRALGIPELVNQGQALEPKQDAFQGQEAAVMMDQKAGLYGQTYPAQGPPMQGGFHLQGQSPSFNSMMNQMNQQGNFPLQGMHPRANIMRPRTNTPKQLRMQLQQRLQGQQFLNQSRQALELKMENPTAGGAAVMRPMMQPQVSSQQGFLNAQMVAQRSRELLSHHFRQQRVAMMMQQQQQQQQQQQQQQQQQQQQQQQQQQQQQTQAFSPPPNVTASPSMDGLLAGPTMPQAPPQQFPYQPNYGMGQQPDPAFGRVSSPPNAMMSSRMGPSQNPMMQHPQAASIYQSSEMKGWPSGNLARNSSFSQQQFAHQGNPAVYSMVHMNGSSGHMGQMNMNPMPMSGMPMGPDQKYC
Test: NCOA3 reporter inhibition potency – cell-based, luminescence, dose response (AID 602166);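 further: potency for reduction of SRC3 reporter signal so compounds are inhibitors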
Details: SRC3 luciferase reporter cell assay
Calls of active or inactive are those of the source. How the calls were made is not given here.
METRIC: IC50

// below: answered compounds
{"STRUCTURE_AS_SMILES": "C/C(=N\\NC(=S)Nc1cc(S(=O)(=O)N2CCOCC2)ccc1Cl)c1ccccc1F", "IC50": "> 35.9 µM (inactive)"}
{"STRUCTURE_AS_SMILES": "CC1CCN(C2=NC(=O)/C(=C/c3ccccc3F)S2)CC1", "IC50": "> 35.9 µM (inactive)"}

Item under review: Cc1nc2c(-c3ccc(Cl)cc3)cnn2c(N)c1-c1ccc(F)cc1 . Reported IC50? > 35.9 µM (inactive)
